- system: T1, recombinant human MASP1 active protease (amino acids 297-699, C-terminal His Tag) (human, UniProt P48740 297-699)
- T1 sequence: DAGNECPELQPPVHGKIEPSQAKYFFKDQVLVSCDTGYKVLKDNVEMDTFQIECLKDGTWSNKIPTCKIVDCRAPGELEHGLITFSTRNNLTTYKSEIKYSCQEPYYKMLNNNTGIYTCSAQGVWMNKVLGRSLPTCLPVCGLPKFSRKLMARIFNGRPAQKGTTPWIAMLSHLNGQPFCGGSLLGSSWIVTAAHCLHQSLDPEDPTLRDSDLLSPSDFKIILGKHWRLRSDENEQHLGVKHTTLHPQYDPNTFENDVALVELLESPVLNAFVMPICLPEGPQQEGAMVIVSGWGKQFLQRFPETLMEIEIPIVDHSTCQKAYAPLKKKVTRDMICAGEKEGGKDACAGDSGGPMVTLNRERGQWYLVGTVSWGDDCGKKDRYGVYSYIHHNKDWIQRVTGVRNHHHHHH
- assay_text: cell-based or functional assay
Bridge positions count the residues as written; N and C are the ends. Square brackets hold non-standard residues; d marks the D form. Ends that are not written are not given here. * marks the point of attachment. (Trifluoro)l/L = 5,5,5-trifluoro-DL-leucine; Oic = O=C(O)[C@@H]1C[C@@H]2CCCC[C@@H]2N1; Cyclobutylacetic = O=C(CC1CCC1)*; tBuAla = CC(C)(C)C[C@H](N)C(=O)O; Aad = N[C@@H](CCCC(=O)O)C(=O)O; Pen = CC(C)(S)[C@H](N)C(=O)O; NMeC = CN[C@@H](CS)C(=O)O; NMeA = CN[C@@H](C)C(=O)O; Aib = CC(C)(N)C(=O)O; βAla = NCCC(=O)O; Sar = CNCC(=O)O
Reported human MASP1 IC50 values are given for each entry in this list.
Number in nM, nothing else.

Kindly note the recorded human MASP1 IC50 for [tBuAla]GICSRSLP[Oic]I[Pen]IP-NH2 (disulfide 4-12; N-terminus assumed; SMILES CC[C@H](C)[C@H](NC(=O)CNC(=O)[C@@H](N)CC(C)(C)C)C(=O)N[C@H]1CSSC(C)(C)[C@@H](C(=O)N[C@H](C(=O)N2CCC[C@H]2C(N)=O)[C@@H](C)CC)NC(=O)[C@H]([C@@H](C)CC)NC(=O)[C@@H]2C[C@@H]3CCCC[C@@H]3N2C(=O)[C@@H]2CCCN2C(=O)[C@H](CC(C)C)NC(=O)[C@H](CO)NC(=O)[C@H](CCCNC(=N)N)NC(=O)[C@H](CO)NC1=O) [Example 322: ((tBu)A)-GIC+SRSLP-(Oic)-I-(Pen)+IP-NH2] , which is 22

Kindly note the recorded human MASP1 IC50 for [Sar]ICSRSLPPICI[Sar]D-OH (disulfide 3-11; N-terminus assumed; SMILES CC[C@H](C)[C@H](NC(=O)CNC)C(=O)N[C@H]1CSSC[C@@H](C(=O)N[C@H](C(=O)N(C)CC(=O)N[C@@H](CC(=O)O)C(=O)O)[C@@H](C)CC)NC(=O)[C@H]([C@@H](C)CC)NC(=O)[C@@H]2CCCN2C(=O)[C@@H]2CCCN2C(=O)[C@H](CC(C)C)NC(=O)[C@H](CO)NC(=O)[C@H](CCCNC(=N)N)NC(=O)[C@H](CO)NC1=O) [Example 329: ((N-Me)G)-IC+SRSLPPIC+I-((N-Me)G)-D-OH] , which is 24

Kindly note the recorded human MASP1 IC50 for [NMeA]ICSRS[tBuAla]P[(3R,6R)‑1,1‑Difluoro‑5‑azaspiro(2.4)heptane‑6‑carboxylic acid (enantiomer 1)]I[Pen]IP-NH2 (disulfide 3-11) , which is 0.78

Kindly note the recorded human MASP1 IC50 for Cyclobutylacetic-ICSRS[tBuAla]PPI[NMeC]I-NH2 (disulfide 2-10; SMILES CC[C@H](C)[C@H](NC(=O)[C@@H]1CSSC[C@H](NC(=O)[C@@H](NC(=O)CC2CCC2)[C@@H](C)CC)C(=O)N[C@@H](CO)C(=O)N[C@@H](CCCNC(=N)N)C(=O)N[C@@H](CO)C(=O)N[C@@H](CC(C)(C)C)C(=O)N2CCC[C@H]2C(=O)N2CCC[C@H]2C(=O)N[C@@H]([C@@H](C)CC)C(=O)N1C)C(N)=O) [Example 382: (Cyclobutylacetic)-IC+SRS-((tBu)A)-PPI-((N-Me)C)+I-NH2] , which is 40

Kindly note the recorded human MASP1 IC50 for ICSRS[tBuAla]PPI[Pen]IP-NH2 (disulfide 2-10; N-terminus assumed; SMILES CC[C@H](C)[C@H](N)C(=O)N[C@H]1CSSC(C)(C)[C@@H](C(=O)N[C@H](C(=O)N2CCC[C@H]2C(N)=O)[C@@H](C)CC)NC(=O)[C@H]([C@@H](C)CC)NC(=O)[C@@H]2CCCN2C(=O)[C@@H]2CCCN2C(=O)[C@H](CC(C)(C)C)NC(=O)[C@H](CO)NC(=O)[C@H](CCCNC(=N)N)NC(=O)[C@H](CO)NC1=O) [Example 316: IC+SRS-((tBu)A)-PPI-(Pen)+IP-NH2] , which is 21

Kindly note the recorded human MASP1 IC50 for [βAla]ICSRSLPPICIPD-OH (disulfide 3-11; N-terminus assumed; SMILES CC[C@H](C)[C@H](NC(=O)CCN)C(=O)N[C@H]1CSSC[C@@H](C(=O)N[C@H](C(=O)N2CCC[C@H]2C(=O)N[C@@H](CC(=O)O)C(=O)O)[C@@H](C)CC)NC(=O)[C@H]([C@@H](C)CC)NC(=O)[C@@H]2CCCN2C(=O)[C@@H]2CCCN2C(=O)[C@H](CC(C)C)NC(=O)[C@H](CO)NC(=O)[C@H](CCCNC(=N)N)NC(=O)[C@H](CO)NC1=O) [Example 306: (beta-A)-IC+SRSLPPIC+IPD-OH] , which is 20

Kindly note the recorded human MASP1 IC50 for GICSRS[(Trifluoro)l/L]PPICIPD-OH (disulfide 3-11) [Example 384: GIC+SRS-((Trifluoro)l/L)-PPIC+IPD-OH] , which is 42

Kindly note the recorded human MASP1 IC50 for [Aib]ICSRSLPPICIPD-NH2 (disulfide 3-11; N-terminus assumed; SMILES CC[C@H](C)[C@@H]1NC(=O)[C@@H]2CCCN2C(=O)[C@@H]2CCCN2C(=O)[C@H](CC(C)C)NC(=O)[C@H](CO)NC(=O)[C@H](CCCNC(=N)N)NC(=O)[C@H](CO)NC(=O)[C@@H](NC(=O)[C@@H](NC(=O)C(C)(C)N)[C@@H](C)CC)CSSC[C@@H](C(=O)N[C@H](C(=O)N2CCC[C@H]2C(=O)N[C@@H](CC(=O)O)C(N)=O)[C@@H](C)CC)NC1=O) [Example 373: (Aib)-IC+SRSLPPIC+IPD-NH2] , which is 37

Kindly note the recorded human MASP1 IC50 for AICSRS[Aad]PPI[NMeC]IPD-NH2 (disulfide 3-11; N-terminus assumed; SMILES CC[C@H](C)[C@H](NC(=O)[C@H](C)N)C(=O)N[C@H]1CSSC[C@@H](C(=O)N[C@H](C(=O)N2CCC[C@H]2C(=O)N[C@@H](CC(=O)O)C(N)=O)[C@@H](C)CC)N(C)C(=O)[C@H]([C@@H](C)CC)NC(=O)[C@@H]2CCCN2C(=O)[C@@H]2CCCN2C(=O)[C@H](CCCC(=O)O)NC(=O)[C@H](CO)NC(=O)[C@H](CCCNC(=N)N)NC(=O)[C@H](CO)NC1=O) [Example 314: AIC+SRS-(AAD)-PP-I-((N-Me)C)+IPD-NH2] , which is 21

Provenance of the data: patent US20210246166A1
